- experiment_description: Pharmacokinetic profiles of patients on the extended dosing regimen (plasma, LCMS/MS, day 15)
- Type: in vivo
- test_settings: human, plasma, po, 100 mg, 100 mg BID oral, day 15, N=3; harmonic mean and pseudo standard deviation; read-out: t1/2 (converted)
measured_endpoint: half-life (h)
State the answer as a number, implicitly in h.

Prompt: Request the reported half-life associated with COc1ccc(S(=O)(=O)Nc2cccnc2Nc2ccc(O)cc2)cc1
Response: 6.1

* * *

- experiment_description: Pharmacokinetic profiles of patients on the extended dosing regimen (plasma, LCMS/MS, day 15)
- Assay type: in vivo
- test_settings: human, plasma, po, 100 mg, 100 mg QD oral, day 15, N=3; AUC0-24
measured_endpoint: AUC
Kindly write the number and append the unit.

Prompt: Request the reported AUC associated with COc1ccc(S(=O)(=O)Nc2cccnc2Nc2ccc(O)cc2)cc1
Response: 39500 ng·h/mL
